PROCEDURE_SUMMARY: Distribution coefficient, log D of the compound at pH 7 by potentiometric titration
Assay type: physicochemical
SETUP_CONDITIONS: octanol/water
OBSERVATION_TYPE: logD

{"COMPOUND": "N=C(N)c1ccc(CNC(=O)[C@@H]2CCCN2C(=O)[C@@H](NCC(=O)O)C(c2ccccc2)c2ccccc2)s1", "logD": -0.088}

1. CCOC(=O)CN[C@@H](C(=O)N1CC[C@H]1C(=O)NCc1ccc(/C(N)=N\O)cc1)C1CCCCC1
2. CCOC(=O)CN[C@H](C(=O)N1CCC[C@H]1C(=O)NCc1ccc(/C(N)=N/O)s1)C(c1ccccc1)c1ccccc1
3. CCCCCCOC(=O)NC(=N)c1ccc(NCc2nc3cc(C(=O)N(CCC(=O)OCC)c4ccccn4)ccc3n2C)cc1 [DABIGATRAN ETEXILATE]
Please list these in order of increasing logD. Thank you! Field: ranking. Enter the labels in the order requested.
1, 2, 3
(1: 0.41, 2: 1.74, 3: 3.7)
